- MEASUREMENT DESCRIPTION: Preliminary assessment of pharmacokinetics in mice
- Format: in vivo, CD-1 mice
- MEASUREMENT CONTEXT: male, CD-1, mouse, plasma, intraperitoneal, 20 mg/kg, title: intraperitoneal 20 mg/kg; 24.0 h; mean; read-out: Concentration of A1 Drug in Plasma of Mice
- Procedure: Dosing Regimen 9 CD-1 mice, male, weighing 20-26 g, were randomly divided into 3 groups with 3 mice in each group. The test compounds were administered intragastric, intravenously or intraperitoneally according to the following protocol. […] The drug was given according to the above dose, the time of administration was recorded, and 20 μL of blood was taken from the femoral plexus of mice at the above set time points and placed in heparinized tubes. […]
READOUT: concentration at 24 h (ng/mL)
// return numeric value only (unit: ng/mL, not printed)

Return reported concentration at 24 h. Input compound: CC(C)Oc1ccc(-c2nc(-c3ccc(CN4CC(C(=O)O)C4)c4ccccc34)no2)cc1C#N.Cl 4.13

The values you see were collected from patent US20240208954A1.
